SYSTEM UNDER TEST: Ubiquitin carboxyl-terminal hydrolase 2 (Homo sapiens) (UniProt O75604)
Sequence (O75604 whole entry, looked up): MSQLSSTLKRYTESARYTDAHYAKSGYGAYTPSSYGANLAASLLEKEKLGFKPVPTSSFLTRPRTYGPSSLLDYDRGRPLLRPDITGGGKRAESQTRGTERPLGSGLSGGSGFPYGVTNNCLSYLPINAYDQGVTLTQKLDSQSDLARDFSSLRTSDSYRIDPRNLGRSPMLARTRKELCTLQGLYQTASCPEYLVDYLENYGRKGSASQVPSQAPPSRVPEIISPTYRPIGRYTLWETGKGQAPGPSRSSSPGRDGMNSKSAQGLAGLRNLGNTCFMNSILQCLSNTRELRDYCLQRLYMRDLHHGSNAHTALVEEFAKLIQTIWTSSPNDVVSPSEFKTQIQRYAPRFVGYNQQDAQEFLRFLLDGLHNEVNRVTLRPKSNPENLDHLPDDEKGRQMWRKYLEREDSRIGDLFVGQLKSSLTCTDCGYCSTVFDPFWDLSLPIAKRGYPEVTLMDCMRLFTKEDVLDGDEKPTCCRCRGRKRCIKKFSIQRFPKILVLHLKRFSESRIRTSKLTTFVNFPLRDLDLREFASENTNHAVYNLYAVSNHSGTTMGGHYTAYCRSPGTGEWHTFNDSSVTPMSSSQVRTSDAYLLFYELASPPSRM
MEASUREMENT PROTOCOL: Ub-rhodamine 110 based assay for inhibitors Ubiquitin-specific Protease USP2a; also: nearly all actives have a fitted effect of over 50% in size
ASSAY SETUP: USP2a Ub-rhodamine110 cleavage, fluorescence; series mostly up to 38.3 µM
Records with an inconclusive call do not appear. Activity calls are given as the source filed them. Calls follow the shape of the dose curve; as a rule, active = well fitted inhibition curve with a large enough effect; inconclusive = small, poorly fitted or top-dose-only effect, or effect the other way; inactive = flat fitted curve, though single readings scatter.
Give your call using only these classes: yes (1) (active), no (0) (inactive)

In this assay, the call recorded for COC(=O)c1[nH]c2ccccc2c1NC(=O)CN1CCCc2ccccc21 was what?
no (0)

In this assay, the call recorded for Cc1ccc(N=C2NC(=O)/C(=C/C=C/c3ccco3)S2)cc1C was what?
yes (1)

In this assay, the call recorded for CC1(C)Cc2c(C#N)c(N3CCN(C(=O)c4ccco4)CC3)nc(-c3ccco3)c2CS1 was what?
yes (1)

In this assay, the call recorded for O=C1Nc2ccccc2SC(c2ccccc2)C1O (configuration not stated) was what?
yes (1)

In this assay, the call recorded for CCOc1cc(/C=C/c2nc3cc(C)c(C)cc3s2)ccc1OCC(=O)N1CCOCC1 was what?
no (0)

In this assay, the call recorded for Fc1ccc(-c2nnn(Cc3nc4ccccc4s3)n2)cc1 was what?
no (0)

In this assay, the call recorded for Cc1cc(Cl)ccc1NC(=S)NCCCN1CCCC1=O was what?
no (0)

In this assay, the call recorded for O=C(Cc1ccc(S(=O)(=O)N2CCOCC2)s1)Nc1nc2c(s1)CCCC2 was what?
yes (1)

In this assay, the call recorded for COc1ccc(C(=O)C[N+]2(C)CCOCC2)cc1 was what?
no (0)

In this assay, the call recorded for CCOc1ccc(CCn2c(-c3ccco3)nc3ccccc3c2=O)cc1OCC was what?
no (0)

In this assay, the call recorded for COc1cccc(NC(=O)c2ccccc2-c2nc(-c3cccc(C)c3)no2)c1 was what?
no (0)

In this assay, the call recorded for COc1ccc(NC(=O)CSc2nc3sc(C)cc3c(=O)n2C)c(OC)c1 was what?
no (0)

In this assay, the call recorded for C=CCn1c(O)c(C(CC)=NCCN2CCOCC2)c(=O)[nH]c1=O was what?
no (0)

In this assay, the call recorded for Cc1ccc(CN2C(=O)N/C(=C\c3cccn3-c3cccc(C(=O)O)c3)C2=O)cc1 was what?
no (0)

In this assay, the call recorded for CCc1ccc([C@@H]2CC=C(C(=O)O)[C@H](c3ccc(C(C)(C)C)cc3)N2S(=O)(=O)c2ccc(C)cc2)cc1 was what?
yes (1)

In this assay, the call recorded for O=C(Nc1nnc(SCC(=O)N2CCCC2)s1)C1CC(=O)N(c2ccc(F)cc2)C1 (configuration not stated) was what?
yes (1)

In this assay, the call recorded for Cc1ccc(C(=O)COC(=O)CNC(=O)CN2C(=O)c3ccccc3C2=O)cc1 was what?
no (0)

In this assay, the call recorded for Cc1c(N=C/C=C2\N(C)c3ccccc3C2(C)C)c(=O)n(-c2ccccc2)n1C was what?
no (0)

In this assay, the call recorded for O=S(=O)(c1ccccc1)N(CC1CO1)c1cc(Cl)ccc1Cl (configuration not stated) was what?
no (0)

In this assay, the call recorded for O=C(/C(=N/N=C/c1ccc(O)c(O)c1O)c1ccccc1)c1ccccc1 was what?
yes (1)

In this assay, the call recorded for O=C(CN1CCC(O)CC1)N1c2ccccc2C=Cc2ccccc21 was what?
no (0)

In this assay, the call recorded for CC[C@]12c3[nH]c4cc(-c5ccco5)ccc4c3CCN1C(=O)[C@@H](CC(=O)NC/C=C(\C)CCC=C(C)C)C[C@@H]2C(=O)N1CCN(C(=O)C2CC2)CC1 was what?
no (0)

In this assay, the call recorded for CCC(C(=O)Nc1nnc(-c2ccco2)s1)c1ccccc1 (configuration not stated) was what?
no (0)

In this assay, the call recorded for CSc1ncccc1C(=O)OCC(=O)N1CCOCC1 was what?
no (0)

In this assay, the call recorded for O=C(Nc1cccc(-c2nn[nH]n2)c1)c1ccc(Br)s1 was what?
no (0)

In this assay, the call recorded for CCCOc1ccc(-c2nc(C#N)c(N3CCN(CC)CC3)o2)cc1 was what?
no (0)

In this assay, the call recorded for CCCCCCCCCCOC(=O)Cn1c(COc2ccccc2OC)[n+](C)c2ccccc21 was what?
no (0)

In this assay, the call recorded for NS(=O)(=O)c1ccc(NC(=O)CN2CCCCC2)cc1 was what?
no (0)

In this assay, the call recorded for O=[N+]([O-])c1c(NCCO)cc(N2CCN(Cc3ccc4c(c3)OCO4)CC2)c2nonc12 was what?
no (0)

In this assay, the call recorded for COc1cccc(-n2c(SCc3cc(=O)oc4cc(O)c(O)cc34)nc3ccccc3c2=O)c1 was what?
yes (1)

In this assay, the call recorded for CC(C(=O)Nc1ccc(C(=O)O)c(O)c1)N1C(=O)/C(=C\c2ccco2)SC1=S (configuration not stated) was what?
yes (1)

In this assay, the call recorded for Cc1cc(NC(=O)COC(=O)CCCOc2ccc(Cl)cc2C)no1 was what?
no (0)

---

SYSTEM UNDER TEST: Ubiquitin carboxyl-terminal hydrolase 2 (Homo sapiens) (UniProt O75604)
MEASUREMENT PROTOCOL: Ub-rhodamine 110 based assay for inhibitors Ubiquitin-specific Protease USP2a; also: nearly all actives have a fitted effect of over 50% in size
ASSAY SETUP: USP2a Ub-rhodamine110 cleavage, fluorescence; series mostly up to 38.3 µM
Records with an inconclusive call do not appear. Calls of active or inactive are those of the source. The call rests on the fitted dose curve; in most records, active means well fitted inhibition curve with a large enough effect; inconclusive means small, poorly fitted or top-dose-only effect, or effect the other way; inactive means flat fitted curve, though single readings scatter.
Give your call using only these classes: label 1 for active, label 0 for inactive

In this assay, the call recorded for COc1ccc(NC(=O)CSc2nnc(-c3ccccc3Cl)n2Cc2ccco2)c(OC)c1 was what?
label 0

In this assay, the call recorded for OCCN(Cc1ccccc1)c1ncnc2sccc12 was what?
label 0

In this assay, the call recorded for Cc1cc(C(C)(C)CC(C)(C)C)ccc1OCCOCC[N+](C)(C)Cc1ccccc1 was what?
label 0

In this assay, the call recorded for CC(C)Oc1ccc(C(=O)Nc2ccc(N3CCCC3)cc2)cc1 was what?
label 1

In this assay, the call recorded for COCc1cc(C)nc(OCC(=O)N/N=C\c2cc(C)n(-c3cccc(C(F)(F)F)c3)c2C)c1C#N was what?
label 0

In this assay, the call recorded for C=CC[C@@H](CC(=O)N(CCO)Cc1ccccc1)C(=O)NCCOC(=O)[C@H](CC=C)CC(=O)OC(C)(C)C was what?
label 0

In this assay, the call recorded for CCC(CO)Nc1nc(CN2CCCCC2)nc2scc(-c3ccccc3)c12 (stereo not drawn) was what?
label 0

In this assay, the call recorded for COc1cc(/C=C/c2cc[n+](C)cc2)ccc1OCC(=O)Nc1ccc(Cl)c(Cl)c1 was what?
label 0

---

SYSTEM UNDER TEST: Ubiquitin carboxyl-terminal hydrolase 2 (Homo sapiens) (UniProt O75604)
MEASUREMENT PROTOCOL: Ub-rhodamine 110 based assay for inhibitors Ubiquitin-specific Protease USP2a; also: nearly all actives have a fitted effect of over 50% in size
ASSAY SETUP: USP2a Ub-rhodamine110 cleavage, fluorescence; series mostly up to 38.3 µM
Inconclusive results are not listed. Active and inactive are the calls of the source. Calls come from the whole dose curve; as a rule, active = well fitted inhibition curve with a large enough effect; inconclusive = small, poorly fitted or top-dose-only effect, or effect the other way; inactive = flat fitted curve, though single readings scatter.
Give your call using only these classes: active, inactive

In this assay, the call recorded for COc1ccc(O)c(-c2cc(-c3ccc(F)cc3)n[nH]2)c1 was what?
inactive

In this assay, the call recorded for CC(C)c1ccc(CCNC(=O)c2ccc([N+](=O)[O-])cc2)cc1 was what?
inactive

In this assay, the call recorded for Cc1cnc(N)c2c(=O)oc3ccccc3c12 was what?
inactive

In this assay, the call recorded for CC(=O)Nc1ccc(Nc2cc(C)nc(Nc3ccc(NC(C)=O)cc3)n2)cc1 was what?
inactive

In this assay, the call recorded for CCCCC1CCC(C(=O)Nc2ccc(S(=O)(=O)Nc3nccs3)cc2)CC1 (stereo unspecified) was what?
active

In this assay, the call recorded for COCCN1Cc2cccc(C(=O)N3CCN(c4cc(C)ccc4C)CC3)c2C1=O was what?
inactive

In this assay, the call recorded for Cc1cc(C)n(C(=O)c2cccc(S(=O)(=O)N3CCCC3)c2)n1 was what?
inactive

In this assay, the call recorded for CC(=O)N1CCCc2cc(S(=O)(=O)CCC(=O)N3CCN(c4cccc(C)c4)C(C)C3)ccc21 (stereo unspecified) was what?
inactive

In this assay, the call recorded for CCCCC(OC(=O)c1cc2occc2n1C)C(=O)NCC1CCCO1 (stereo unspecified) was what?
inactive

In this assay, the call recorded for O=C(Nc1ccc(Nc2ccncc2)cc1)c1ccc(Nc2ccnc3ccc([N+](=O)[O-])cc23)cc1 was what?
active

In this assay, the call recorded for O=C(OCc1ccccc1)C1CCCN1C(=O)c1cccs1 (stereo unspecified) was what?
inactive

In this assay, the call recorded for COc1cccc(/C=N/n2c(SC)nnc2-c2ccccc2)c1O was what?
inactive

In this assay, the call recorded for O=C(COC(=O)c1ccc(F)c(S(=O)(=O)N2CCOCC2)c1)c1ccccc1 was what?
inactive

In this assay, the call recorded for O=C(OCC(=O)N1CCCCC1)c1cc2ccccc2cc1O was what?
inactive

In this assay, the call recorded for Cc1ccc(C(=O)N(c2c(C)n(C)n(-c3ccccc3)c2=O)C(C)C)cc1 was what?
inactive

In this assay, the call recorded for CCOc1ccc(NC(=O)CSc2nnc(Cn3c(=O)sc4ccccc43)n2C)cc1 was what?
inactive

In this assay, the call recorded for CCC(C)Cn1c(O)cc2nn(-c3nc4ccccc4s3)c(=O)c-2c1C (stereo unspecified) was what?
active

In this assay, the call recorded for Cc1noc(/C=C/c2ccco2)c1S(=O)(=O)N1CCC(C(=O)N2CCc3ccccc3C2)CC1 was what?
active

In this assay, the call recorded for CCOc1ccccc1N(CC(=O)NC(C)(C)C)C(=O)c1ccc(CN2CCOCC2)o1 was what?
inactive

In this assay, the call recorded for CCN(CC)S(=O)(=O)c1ccc(-c2nnc(SCC(=O)Nc3ccc4c(c3)OCO4)o2)cc1 was what?
active

In this assay, the call recorded for Cc1ccc(C)n1-c1cc(S(=O)(=O)N2CCOCC2)ccc1N1CCCC1 was what?
inactive

In this assay, the call recorded for Cc1ccc(C2(C)NC(=O)N(CC(=O)c3ccc(Cl)s3)C2=O)cc1 (stereo unspecified) was what?
active

In this assay, the call recorded for Cc1cc(C(=O)Nc2ccccc2N2CCOCC2)c2ccccc2n1 was what?
inactive

In this assay, the call recorded for CCOC(=O)N1CCN(C(=O)CN(c2ccc(Oc3ccccc3)cc2)S(C)(=O)=O)CC1 was what?
inactive

In this assay, the call recorded for Cc1cccc(OCC(=O)Nc2ccc(N3CCCC3)cc2)c1C was what?
active

In this assay, the call recorded for Cc1cc(C)c(NC(=O)C[N+](C)(C)CC(O)COc2cccc3ccccc23)c(C)c1 (stereo unspecified) was what?
inactive

In this assay, the call recorded for O=[N+]([O-])c1ccc(Sc2nnnn2-c2ccccc2)c(Cl)c1 was what?
inactive

In this assay, the call recorded for CN(CC(=O)Nc1cccc2ccccc12)C(=O)c1ccc(NC(=O)CC#N)cc1 was what?
active

In this assay, the call recorded for Cc1cc(C)n2cc(CSc3nnnn3-c3ccccc3C)nc2n1 was what?
inactive

In this assay, the call recorded for CCn1c(CN2CCOCC2)nnc1SCC(=O)Nc1ccc(C(C)=O)cc1 was what?
inactive

In this assay, the call recorded for Cc1c(NC(=O)C2CCCN(S(=O)(=O)c3cnc[nH]3)C2)c(=O)n(-c2ccccc2)n1C (stereo unspecified) was what?
inactive
